Sourced from patent US4342774A

Catalogue of LD50 at 168 h values
Experiment: Acute toxicity, oral, rats
Assay type: in vivo
Conditions: rat, in vivo, po; P.O., male rats, observed seven days
Where a name gives a salt, the structure may show the parent alone.

CC(=O)NCCC(=O)N[C@@H](Cc1c[nH]cn1)C(=O)O [B, N-acetyl-L-carnosine aluminum salt] :: > 10000 mg/kg

Now examine the next entry.
Give the reported LD50 at 168 h for this molecule. CC(=O)NCCC(=O)NC(Cc1c[nH]cn1)C(=O)O (racemic) [A, N-acetyl-DL-carnosine aluminum salt]
> 10000 mg/kg
